Assay: Stability of mini-tablets containing clavulanic acid compared to a clavulanic acid reference sample as a function of time
Format: physicochemical
Conditions: 26 weeks
TEST READOUT: Stability (clavulanic acid) as a function of time

For the compound shown here, O=C(O)[C@H]1/C(=C/CO)O[C@@H]2CC(=O)N21 [Clavulanic acid reference, Clavulanic acid] , give the reported Stability (clavulanic acid) as a function of time.
88.4%

* * *

Experiment: Stability of mini-tablets containing clavulanic acid compared to a clavulanic acid reference sample as a function of time
Assay type: physicochemical
Details: 1 week
TEST READOUT: Stability (clavulanic acid) as a function of time (%)
Please give a number only; it is taken to be in %.

For the molecule shown here, O=C(O)[C@H]1/C(=C/CO)O[C@@H]2CC(=O)N21 [Clavulanic acid reference, Clavulanic acid] , give the reported Stability (clavulanic acid) as a function of time.
86.4

* * *

Assay: Stability of mini-tablets containing clavulanic acid compared to a clavulanic acid reference sample as a function of time
Type: physicochemical
Conditions: 0 weeks
TEST READOUT: Stability (clavulanic acid) as a function of time (%)
Please give a number only; it is taken to be in %.

For the compound shown here, O=C(O)[C@H]1/C(=C/CO)O[C@@H]2CC(=O)N21 [Clavulanic acid reference, Clavulanic acid] , give the reported Stability (clavulanic acid) as a function of time.
100
